# PL per record follows
Species on record: Rattus norvegicus
Assay: Open TG-GATES - Regimen: Daily Repeat
Assay type: toxicity, organism-based, Sprague-Dawley
Parameters: regimen Daily Repeat, gender Male, age 6 weeks
Conditions: in vivo, po, 300 mg/kg, […], tissue Plasma, route gavage, dose level Middle, time 7 day
State the value, then name its unit.

I have this compound here, CCN1CCCC1CNC(=O)c1cc(S(N)(=O)=O)ccc1OC (centres undefined) [SULPIRIDE] , and I need its recorded PL.
143 mg/dL

Try CC(C)(S)[C@@H](N)C(=O)O [PENICILLAMINE] next.
164.8 mg/dL

Try O=C(O)c1cccnc1 [NIACIN] next.
161.8 mg/dL

// next entry
I have this compound here, O=C(N[C@H](CO)[C@H](O)c1ccc([N+](=O)[O-])cc1)C(Cl)Cl [CHLORAMPHENICOL] , and I need its recorded PL.
148.8 mg/dL
